The measured values listed here are drawn from patent US6238689A.

assay_overview: Pharmacokinetics of nicotine tartrate after IV and Eudragit coated delayed release oral (DRO) capsules (Example 5)
test_context: human, in vivo, iv, […]
measured_endpoint: half-life (h)

>>> observed_result("CN1CCCC1c1cccnc1 (stereo not shown) [nicotine]")
1

---

assay_overview: Pharmacokinetics of nicotine tartrate after IV and Eudragit coated delayed release oral (DRO) capsules (Example 5)
test_context: human, in vivo, iv, […]
measured_endpoint: Tmax (min)

>>> observed_result("CN1CCCC1c1cccnc1 (stereo not shown) [nicotine]")
24

---

assay_overview: Pharmacokinetics of nicotine after IV, oral and enema administration (Example 4)
test_context: human, plasma, iv, […], AUC, IV 15 mcg/kg over 15-30 min, n = 32, mean ± SD
measured_endpoint: AUC (ng·h/mL)

>>> observed_result("CN1CCCC1c1cccnc1 (stereo not shown)")
12
